assay_notes: Pharmacokinetics in CD-1 mice
Type: in vivo
assay_setup: male, mouse, plasma, 10 mg/kg PO (n=3), read-out: AUClast (PO)
measured_endpoint: AUC(0-t) (ng·h/mL)

{"compound": "CNCC(O)CN1CCN(c2cc(C(F)(F)F)cc(C(F)(F)F)c2OC(=O)N(C)c2ccc(F)cc2)C1=O (stereo not shown)", "obs_value": 2050}

----------
assay_notes: Mouse plasma protein binding
Format: in vitro ADME
Excerpt: 4 In Vitro ADME and Potency of Chiral Derivatives | column: Mouse plasma protein binding (% free)

{"structure_string": "[2H]C([2H])([2H])N(C(=O)Oc1c(N2CCN(C[C@H](O)CN(C)C)C2=O)cc(C(F)(F)F)cc1C(F)(F)F)c1ccc(F)cc1", "Mouse plasma protein binding (% free)": 3.9}
{"structure_string": "[2H]C([2H])([2H])N(C(=O)Oc1c(N2CCN(C[C@@H](O)CN(C)C)C2=O)cc(C(F)(F)F)cc1C(F)(F)F)c1ccc(F)cc1", "Mouse plasma protein binding (% free)": 4.0}
{"structure_string": "[2H]C([2H])([2H])N(C(=O)Oc1c(N2CCN(C[C@@H](O)CNC)C2=O)cc(C(F)(F)F)cc1C(F)(F)F)c1ccc(F)cc1", "Mouse plasma protein binding (% free)": 3.1}
{"structure_string": "[2H]C([2H])([2H])N(C(=O)Oc1c(N2CCN(C[C@H](O)CNC)C2=O)cc(C(F)(F)F)cc1C(F)(F)F)c1ccc(F)cc1", "Mouse plasma protein binding (% free)": 2.1}

----------
Listing of entries alongside the reported IC50.
target_system: recombinant human Polθ-pol (Homo sapiens)
Construct: purified recombinant human Polθ-pol (comprising amino acid residues 1792–2590); made in house
Sequence (O75417 1792-2590): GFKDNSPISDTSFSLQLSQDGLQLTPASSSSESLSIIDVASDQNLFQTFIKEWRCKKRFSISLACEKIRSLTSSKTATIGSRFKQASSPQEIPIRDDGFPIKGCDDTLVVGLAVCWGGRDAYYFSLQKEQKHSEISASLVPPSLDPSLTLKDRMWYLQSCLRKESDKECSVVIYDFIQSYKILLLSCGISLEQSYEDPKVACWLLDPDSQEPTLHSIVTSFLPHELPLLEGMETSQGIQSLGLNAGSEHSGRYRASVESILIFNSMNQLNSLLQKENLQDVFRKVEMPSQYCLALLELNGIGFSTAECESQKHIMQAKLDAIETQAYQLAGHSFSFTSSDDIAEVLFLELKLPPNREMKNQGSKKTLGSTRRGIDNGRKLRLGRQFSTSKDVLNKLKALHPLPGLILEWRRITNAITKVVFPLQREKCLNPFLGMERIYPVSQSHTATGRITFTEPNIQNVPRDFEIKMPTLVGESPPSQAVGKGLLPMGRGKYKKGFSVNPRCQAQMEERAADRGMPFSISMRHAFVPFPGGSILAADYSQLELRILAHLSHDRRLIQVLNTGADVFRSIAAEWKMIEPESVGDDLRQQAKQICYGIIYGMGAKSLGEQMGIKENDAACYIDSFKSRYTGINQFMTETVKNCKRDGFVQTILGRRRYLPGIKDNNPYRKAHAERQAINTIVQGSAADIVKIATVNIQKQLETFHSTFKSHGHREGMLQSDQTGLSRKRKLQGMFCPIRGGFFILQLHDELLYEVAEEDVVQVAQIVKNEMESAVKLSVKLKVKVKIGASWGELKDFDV
assay_notes: Fluorescent-based IC50 DNA synthesis assay
Format: biochemical
assay_setup: n=3

{"molecule": "[2H]C([2H])([2H])N(C(=O)Oc1c(N2CCN(C[C@H](O)CNC)C2=O)cc(C(F)(F)F)cc1C(F)(F)F)c1ccc(F)cc1", "IC50": "13.6 nM"}
{"molecule": "[2H]C([2H])([2H])N(C(=O)Oc1c(N2CCN(CC(O)CNC)C2=O)cc(C(F)(F)F)cc1C(F)(F)F)c1ccc(F)cc1 (stereo not shown)", "IC50": "6.1 nM"}
{"molecule": "[2H]C([2H])([2H])N(C(=O)Oc1c(N2CCN(C[C@@H](O)CN(C)C)C2=O)cc(C(F)(F)F)cc1C(F)(F)F)c1ccc(F)cc1", "IC50": "7.5 nM"}
{"molecule": "[2H]C([2H])([2H])N(C(=O)Oc1c(N2CCN(C[C@@H](O)CNC)C2=O)cc(C(F)(F)F)cc1C(F)(F)F)c1ccc(F)cc1", "IC50": "6.6 nM"}

----------
assay_notes: Liver microsome stability
Assay type: in vitro ADME
assay_setup: male, CD1, pH 7.4; mouse liver microsomes; read-out: T1/2 mouse liver microsomes
Below, each entry is listed alongside its reported half-life at 1 μM.
measured_endpoint: half-life at 1 μM (min)

{"compound": "[2H]C([2H])([2H])N(C(=O)Oc1c(N2CCN(C[C@H](O)CNC)C2=O)cc(C(F)(F)F)cc1C(F)(F)F)c1ccc(F)cc1", "bound_operator": "=", "obs_value": 36.3}
{"compound": "[2H]C([2H])([2H])N(C(=O)Oc1c(N2CCN(C[C@@H](O)CNC)C2=O)cc(C(F)(F)F)cc1C(F)(F)F)c1ccc(F)cc1", "bound_operator": ">", "obs_value": 50}
{"compound": "CN(C)CC(O)CN1CCN(c2cc(C(F)(F)F)cc(C(F)(F)F)c2OC(=O)N(C)c2ccc(F)cc2)C1=O (stereo not drawn)", "bound_operator": "=", "obs_value": 7.9}

----------
assay_notes: Pharmacokinetics in Sprague Dawley rats
Format: in vivo
assay_setup: rat, in vivo, 25 mg/kg PO (n=3)

{"compound": "[2H]C([2H])([2H])N(C(=O)Oc1c(N2CCN(C[C@H](O)CN(C)C)C2=O)cc(C(F)(F)F)cc1C(F)(F)F)c1ccc(F)cc1 [RTx-303]", "Tmax, h": 3.3}

----------
The reader will find reported half-life at 5 μM values listed item by item below.
assay_notes: Stability in PBS, simulated gastric fluid and simulated intestinal fluid
Format: in vitro ADME
assay_setup: Dulbecco's PBS, pH 7.4; read-out: T1/2 PBS

{"compound": "[2H]C([2H])([2H])N(C(=O)Oc1c(N2CCN(CC(O)CNC)C2=O)cc(C(F)(F)F)cc1C(F)(F)F)c1ccc(F)cc1 (centres unmarked)", "half-life at 5 μM": "> 3 h"}
{"compound": "[2H]C([2H])([2H])N(C(=O)Oc1c(N2CCN(CC(O)CN(C)C)C2=O)cc(C(F)(F)F)cc1C(F)(F)F)c1ccc(F)cc1 (centres unmarked)", "half-life at 5 μM": "> 3 h"}

----------
# half-life at 1 μM per record follows
assay_notes: Liver microsome stability
Type: in vitro ADME
assay_setup: both sexes, pH 7.4; human liver microsomes; read-out: T1/2 human liver microsomes

{"compound": "[2H]C([2H])([2H])N(C(=O)Oc1c(N2CCN(C[C@@H](O)CN(C)C)C2=O)cc(C(F)(F)F)cc1C(F)(F)F)c1ccc(F)cc1", "half-life at 1 μM": "12.5 min"}
{"compound": "[2H]C([2H])([2H])N(C(=O)Oc1c(N2CCN(C[C@@H](O)CNC)C2=O)cc(C(F)(F)F)cc1C(F)(F)F)c1ccc(F)cc1", "half-life at 1 μM": "> 60 min"}
{"compound": "[2H]C([2H])([2H])N(C(=O)Oc1c(N2CCN(C[C@H](O)CN(C)C)C2=O)cc(C(F)(F)F)cc1C(F)(F)F)c1ccc(F)cc1", "half-life at 1 μM": "7.3 min"}
{"compound": "[2H]C([2H])([2H])N(C(=O)Oc1c(N2CCN(CC(O)CN(C)C)C2=O)cc(C(F)(F)F)cc1C(F)(F)F)c1ccc(F)cc1 (stereo not drawn)", "half-life at 1 μM": "15.2 min"}
{"compound": "[2H]C([2H])([2H])N(C(=O)Oc1c(N2CCN(CC(O)CNC)C2=O)cc(C(F)(F)F)cc1C(F)(F)F)c1ccc(F)cc1 (stereo not drawn)", "half-life at 1 μM": "> 56 min"}
{"compound": "[2H]C([2H])([2H])N(C(=O)Oc1c(N2CCN(C[C@H](O)CNC)C2=O)cc(C(F)(F)F)cc1C(F)(F)F)c1ccc(F)cc1", "half-life at 1 μM": "> 60 min"}

----------
assay_notes: Liver microsome stability
Format: in vitro ADME
assay_setup: male, CD1, pH 7.4; mouse liver microsomes; read-out: T1/2 mouse liver microsomes
Below, each entry is listed alongside its reported half-life at 1 μM.

{"compound": "[2H]C([2H])([2H])N(C(=O)Oc1c(N2CCN(C[C@H](O)CN(C)C)C2=O)cc(C(F)(F)F)cc1C(F)(F)F)c1ccc(F)cc1 [RTx-303]", "bound_operator": "=", "half-life at 1 μM / min": 7.1}
{"compound": "CN(C(=O)Oc1c(N2CCN(CCO)C2=O)cc(C(F)(F)F)cc1C(F)(F)F)c1ccc(F)cc1 [RTx-161, reference compound]", "bound_operator": "<", "half-life at 1 μM / min": 2}
{"compound": "CNCC(O)CN1CCN(c2cc(C(F)(F)F)cc(C(F)(F)F)c2OC(=O)N(C)c2ccc(F)cc2)C1=O (stereo not drawn) [RTx-290]", "bound_operator": "=", "half-life at 1 μM / min": 56.9}
{"compound": "[2H]C([2H])([2H])N(C(=O)Oc1c(N2CCN(C[C@@H](O)CN(C)C)C2=O)cc(C(F)(F)F)cc1C(F)(F)F)c1ccc(F)cc1 [RTx-302]", "bound_operator": "=", "half-life at 1 μM / min": 6.9}
{"compound": "[2H]C([2H])([2H])N(C(=O)Oc1c(N2CCN(CC(O)CNC)C2=O)cc(C(F)(F)F)cc1C(F)(F)F)c1ccc(F)cc1 (stereo not drawn) [RTx-283]", "bound_operator": "=", "half-life at 1 μM / min": 44.8}
{"compound": "[2H]C([2H])([2H])N(C(=O)Oc1c(N2CCN(CC(O)CN(C)C)C2=O)cc(C(F)(F)F)cc1C(F)(F)F)c1ccc(F)cc1 (stereo not drawn) [RTx-284]", "bound_operator": "=", "half-life at 1 μM / min": 8}

----------
AUC(0-t) by entry:
assay_notes: Pharmacokinetics in CD-1 mice
Type: in vivo
assay_setup: male, mouse, plasma, 50 mg/kg PO (n=3), read-out: AUClast (PO)

{"molecule": "[2H]C([2H])([2H])N(C(=O)Oc1c(N2CCN(CC(O)CN(C)C)C2=O)cc(C(F)(F)F)cc1C(F)(F)F)c1ccc(F)cc1 (stereo not drawn) [RTx-284]", "quantity_unit": "ng·h/mL", "AUC(0-t)": 30700}
{"molecule": "[2H]C([2H])([2H])N(C(=O)Oc1c(N2CCN(C[C@H](O)CN(C)C)C2=O)cc(C(F)(F)F)cc1C(F)(F)F)c1ccc(F)cc1 [RTx-303]", "quantity_unit": "ng·h/mL", "AUC(0-t)": 30200}
{"molecule": "[2H]C([2H])([2H])N(C(=O)Oc1c(N2CCN(C[C@@H](O)CN(C)C)C2=O)cc(C(F)(F)F)cc1C(F)(F)F)c1ccc(F)cc1 [RTx-302]", "quantity_unit": "ng·h/mL", "AUC(0-t)": 24200}

Hello, the source for this data is paper PMC12621202, in case you need it.
